format: physicochemical
measured attribute: Solubility (temperature at which 50 mg of substance is dissolved in 1 ml) (°C)
Reply numerically in °C, unit not repeated.

compound="CC(C)C(=O)OC/C=C\\[C@]1(O)CC[C@H]2[C@@H]3CCC4=CC(=O)CC[C@@]45Cc4cc(-c6ccc(C#N)cc6)ccc4[C@@H](C[C@@]21C)[C@@H]35 [Reference Compound 3, reference compound]" measurement=100
compound="CC(C)CC(=O)OC/C=C\\[C@]1(O)CC[C@H]2[C@@H]3CCC4=CC(=O)CC[C@@]45Cc4cc(-c6ccc(C#N)cc6)ccc4[C@@H](C[C@@]21C)[C@@H]35 [Compound 1]" measurement=50
compound="CC(C)CC(=O)OCC/C=C\\[C@]1(O)CC[C@H]2[C@@H]3CCC4=CC(=O)CC[C@@]45Cc4cc(-c6ccc(F)cc6)ccc4[C@@H](C[C@@]21C)[C@@H]35 [Compound 4]" measurement=50
compound="CC(C)CC(=O)OCC/C=C\\[C@]1(O)CC[C@H]2[C@@H]3CCC4=CC(=O)CC[C@@]45Cc4cc(-c6ccc(C#N)cc6)ccc4[C@@H](C[C@@]21C)[C@@H]35 [Compound 3]" measurement=23
compound="CC(C)C(=O)OCC/C=C\\[C@]1(O)CC[C@H]2[C@@H]3CCC4=CC(=O)CC[C@@]45Cc4cc(-c6ccc(C#N)cc6)ccc4[C@@H](C[C@@]21C)[C@@H]35 [Compound 2]" measurement=23

Lab note: next compound to report on.
Data request: # get_value(readout='Solubility (temperature at which 50 mg of substance is dissolved in 1 ml)', item= CC(C)CC(=O)OC/C=C\[C@]1(O)C=C[C@H]2[C@@H]3CCC4=CC(=O)CC[C@@]45Cc4cc(-c6ccc(C#N)cc6)ccc4[C@@H](C[C@@]21C)[C@@H]35 [Compound 5] )
Data returned: 23
